UniProtKB P07858 pIC50 data
pIC50: −log10 of the molar value.
Quantity Name: pIC50

Example results:
molecule=N#CC1(NC(=O)C2(NC(=O)c3cc4ccc(-c5ccc(-n6cncn6)cc5)cc4o3)CCC(F)(F)CC2)CC1 quantity_name=pIC50 measured_result=5.85
molecule=CCOc1cc(-c2ccc3cc(C(=O)NC4(C(=O)NC5(C#N)CC5)CCC(F)(F)CC4)oc3c2)ccc1-n1cncn1 quantity_name=pIC50 measured_result=5.30

P = N#CC1(NC(=O)C2(NC(=O)c3cc4ccc(-c5ccc(C(O)C(N)=O)cc5)cc4o3)CCC(F)(F)CC2)CC1 (stereo not shown)
Q = N#CC1(NC(=O)C2(NC(=O)c3cc4ccc(-c5ccc(C(=O)N6CCOCC6)cc5)cc4o3)CCC(F)(F)CC2)CC1
R = N#CC1(NC(=O)C2(NC(=O)c3cc4ccc(-c5csc(N6CCOC6=O)n5)cc4o3)CCCCC2)CC1
# rank by pIC50, ascending (min first) Enter labels, ranked according to the request.
Q, P, R
(Q: 5.19, P: 5.92, R: 6.44)
